- Assay target: ERα (Homo sapiens (Human), UniProt P03372)
- Sequence (P03372 whole entry): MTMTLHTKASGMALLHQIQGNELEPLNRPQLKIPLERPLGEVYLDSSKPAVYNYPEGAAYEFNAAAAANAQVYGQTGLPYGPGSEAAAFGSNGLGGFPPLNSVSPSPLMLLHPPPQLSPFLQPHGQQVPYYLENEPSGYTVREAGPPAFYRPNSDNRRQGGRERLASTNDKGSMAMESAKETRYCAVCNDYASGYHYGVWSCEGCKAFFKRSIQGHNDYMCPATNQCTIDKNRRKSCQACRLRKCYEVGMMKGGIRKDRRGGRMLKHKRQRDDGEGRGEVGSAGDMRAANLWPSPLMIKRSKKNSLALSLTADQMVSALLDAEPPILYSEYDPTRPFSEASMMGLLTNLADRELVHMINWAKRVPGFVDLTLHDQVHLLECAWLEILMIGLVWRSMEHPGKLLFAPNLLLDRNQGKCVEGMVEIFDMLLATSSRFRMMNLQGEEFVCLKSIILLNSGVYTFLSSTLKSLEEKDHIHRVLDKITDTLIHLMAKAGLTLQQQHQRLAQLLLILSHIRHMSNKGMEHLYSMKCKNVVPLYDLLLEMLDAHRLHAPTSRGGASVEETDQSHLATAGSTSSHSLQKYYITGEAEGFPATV
- Experimental details: ERα degradation (MCF7 cells), in-cell Western
- Format: cell-based
- Conditions: remaining ERα protein at 10 μM ligand, MCF7 cells, relative to DMSO control
Value type: % ERα remaining (%)
Report the figure in % without appending any unit label.

# molecule O=C(O)/C=C/c1ccc(Oc2c(-c3ccccc3C3CCCC3)sc3cc(O)ccc23)cc1 ; its % ERα remaining = 15

For this molecule ( Cn1nnnc1/C=C/c1ccc(Oc2c(-c3ccc(O)cc3)sc3cc(O)ccc23)cc1 ), measured % ERα remaining is 39

Short answer for CNC(=O)/C=C/c1ccc(Oc2c(-c3ccc(O)cc3)sc3cc(O)ccc23)cc1 : % ERα remaining was 40

The recorded % ERα remaining for entry CC(C)c1ccccc1-c1sc2cc(O)ccc2c1Oc1ccc(/C=C/C(=O)O)nc1 equals 16

Form field % ERα remaining, entry O=C(O)/C=C/c1ccc(Oc2c(-c3ccc(F)cc3CN3CCCC3=O)sc3cc(O)ccc23)cc1 : 14

molecule O=C(O)/C=C/c1ccc(Oc2c(-c3ccc(O)c(F)c3)sc3cc(O)ccc23)cc1 , % ERα remaining observed: 23
